systemTested: Prothrombin (Homo sapiens, UniProt P00734)
protocol: Inhibition of thrombin (unknown origin) at 25 uM using Boc-Val-Pro-Arg-AMC as substrate preincubated with enzyme for 15 mins followed by addition of substrate by fluorescence plate reader analysis relative to control
Threshold check on inhibition: at or above 20% gives Met, strictly below gives Not met.

compound: N=C(N)Nc1ccc(C(=O)Nc2cccc(NC(=N)N)c2)cc1
systemTested: Prothrombin (Homo sapiens, UniProt P00734)
categoryLabel: Not met

compound: N=C(N)Nc1ccc(OC(=O)c2ccc(NC(=N)N)cc2)cc1
systemTested: Prothrombin (Homo sapiens, UniProt P00734)
categoryLabel: Met

compound: N=C(N)NCCCCOC(=O)c1ccc(NC(=N)N)cc1
systemTested: Prothrombin (Homo sapiens, UniProt P00734)
categoryLabel: Met

compound: N=C(N)NCCCC(=O)Oc1ccc(NC(=N)N)cc1
systemTested: Prothrombin (Homo sapiens, UniProt P00734)
categoryLabel: Not met

compound: N=C(N)NCCCCC(=O)Oc1ccc(NC(=N)N)cc1
systemTested: Prothrombin (Homo sapiens, UniProt P00734)
categoryLabel: Met

compound: N=C(N)Nc1ccc(C(=O)Oc2ccc(CN)cc2)cc1
systemTested: Prothrombin (Homo sapiens, UniProt P00734)
categoryLabel: Met

compound: N=C(N)NCCCOC(=O)c1ccc(NC(=N)N)cc1
systemTested: Prothrombin (Homo sapiens, UniProt P00734)
categoryLabel: Met

compound: N=C(N)Nc1ccc(C(=O)Oc2ccc(N)cc2)cc1
systemTested: Prothrombin (Homo sapiens, UniProt P00734)
categoryLabel: Met

compound: N=C(N)Nc1ccc(C(=O)Oc2cccc(NC(=N)N)c2)cc1
systemTested: Prothrombin (Homo sapiens, UniProt P00734)
categoryLabel: Met

compound: CN(C)C(=O)COC(=O)Cc1ccc(OC(=O)c2ccc(NC(=N)N)cc2)cc1 [CAMOSTAT]
systemTested: Prothrombin (Homo sapiens, UniProt P00734)
categoryLabel: Met

compound: N=C(N)Nc1ccc(OC(=O)c2ccc(N)cc2)cc1
systemTested: Prothrombin (Homo sapiens, UniProt P00734)
categoryLabel: Met

compound: N=C(N)Nc1ccc(NC(=O)Oc2ccc(N)cc2)cc1
systemTested: Prothrombin (Homo sapiens, UniProt P00734)
categoryLabel: Not met

compound: N=C(N)Nc1ccc(NC(=O)c2ccc(NC(=N)N)cc2)cc1
systemTested: Prothrombin (Homo sapiens, UniProt P00734)
categoryLabel: Met

* * *

systemTested: Trypsin (Homo sapiens, UniProt P07477+P07478+P35030)
protocol: Inhibition of trypsin (unknown origin) at 1 mM using Boc-Val-Pro-Arg-AMC as substrate preincubated with enzyme for 15 mins followed by addition of substrate by fluorescence plate reader analysis relative to control
Format: protein assay

testSmiles: CN(C(=O)Oc1ccc(N)cc1)c1ccc(N)cc1
inhibition: 95.9%
//
testSmiles: CN(C)C(=O)Oc1cc(NC(=N)N)ccc1NC(=O)c1ccc(NC(=N)N)cc1
inhibition: 99.2%
//
testSmiles: CN(C(=O)Oc1ccc(CN)cc1)c1ccc(N)cc1
inhibition: 95.6%
//
testSmiles: N=C(N)Nc1ccc(NC(=O)Oc2ccc(N)cc2)cc1
inhibition: 101%
//
testSmiles: Nc1ccc(NC(=O)Oc2ccc(N)cc2)cc1
inhibition: 99.2%
//
testSmiles: CN(C(=O)Oc1ccc(CN)cc1)c1ccc(CN)cc1
inhibition: 43.9%
//
testSmiles: CN(C)C(=O)Oc1cc(NC(=N)N)ccc1C(=O)Nc1ccc(CN)cc1
inhibition: 43.7%
//
testSmiles: N=C(N)NCc1ccc(NC(=O)Oc2ccc(N)cc2)cc1
inhibition: 98.4%
//
testSmiles: CN(C)C(=O)Oc1ccc(NC(=N)N)cc1C(=O)Nc1ccc(CN)cc1
inhibition: 19.3%

* * *

systemTested: Genome polyprotein (dengue virus type 2) (UniProt P29990)
protocol: Inhibition of dengue virus serotype 2 His-tagged NS2B cofactor domain-NS3 protease expressed in Escherichia coli at 50 uM using 2-Abz-Nle-Lys-Arg-Arg-Ser-(3-NO2)-Tyr-NH2 as substrate preincubated with enzyme for 15 mins followed by substrate addition measured for every 1 sec for 15 mins by fluorescence plate reader based HPLC analysis relative to control
Threshold check on inhibition: at or above 40% gives rule met, strictly below gives rule not met.

testSmiles: N=C(N)Nc1ccc(OC(=O)c2ccc(N)cc2)cc1
systemTested: Genome polyprotein (dengue virus type 2) (UniProt P29990)
categoryLabel: rule met
--
testSmiles: N=C(N)NCCCCC(=O)Oc1ccc(NC(=N)N)cc1
systemTested: Genome polyprotein (dengue virus type 2) (UniProt P29990)
categoryLabel: rule not met
--
testSmiles: N=C(N)NCCCC(=O)Oc1ccc(NC(=N)N)cc1
systemTested: Genome polyprotein (dengue virus type 2) (UniProt P29990)
categoryLabel: rule not met
--
testSmiles: N=C(N)Nc1ccc(OC(=O)c2ccc(NC(=N)N)cc2)cc1
systemTested: Genome polyprotein (dengue virus type 2) (UniProt P29990)
categoryLabel: rule met
--
testSmiles: N=C(N)Nc1ccc(C(=O)Nc2cccc(NC(=N)N)c2)cc1
systemTested: Genome polyprotein (dengue virus type 2) (UniProt P29990)
categoryLabel: rule not met
--
testSmiles: N=C(N)Nc1ccc(C(=O)Oc2cccc(NC(=N)N)c2)cc1
systemTested: Genome polyprotein (dengue virus type 2) (UniProt P29990)
categoryLabel: rule met
--
testSmiles: N=C(N)NCCCOC(=O)c1ccc(NC(=N)N)cc1
systemTested: Genome polyprotein (dengue virus type 2) (UniProt P29990)
categoryLabel: rule met
--
testSmiles: N=C(N)NCCCCOC(=O)c1ccc(NC(=N)N)cc1
systemTested: Genome polyprotein (dengue virus type 2) (UniProt P29990)
categoryLabel: rule met
--
testSmiles: N=C(N)Nc1ccc(NC(=O)Oc2ccc(N)cc2)cc1
systemTested: Genome polyprotein (dengue virus type 2) (UniProt P29990)
categoryLabel: rule met
--
testSmiles: N=C(N)Nc1ccc(NC(=O)c2ccc(NC(=N)N)cc2)cc1
systemTested: Genome polyprotein (dengue virus type 2) (UniProt P29990)
categoryLabel: rule not met
--
testSmiles: CN(C)C(=O)COC(=O)Cc1ccc(OC(=O)c2ccc(NC(=N)N)cc2)cc1
systemTested: Genome polyprotein (dengue virus type 2) (UniProt P29990)
categoryLabel: rule not met
--
testSmiles: N=C(N)Nc1ccc(C(=O)Oc2ccc(N)cc2)cc1
systemTested: Genome polyprotein (dengue virus type 2) (UniProt P29990)
categoryLabel: rule not met

* * *

systemTested: Genome polyprotein (West Nile virus)
protocol: Inhibition of West Nile virus His-tagged NS2B cofactor domain-NS3 protease expressed in Escherichia coli at 50 uM using 2-Abz-Gly-Leu-Lys-Arg-Gly-Gly-(3-NO2)-Tyr-NH2 as substrate preincubated with enzyme for 15 mins followed by substrate addition measured for every 1 sec for 15 mins by fluorescence microplate reader based HPLC analysis relative to control

testSmiles: N=C(N)NCCCOC(=O)c1ccc(NC(=N)N)cc1
measurementUnits: %
inequalityOperator: <
inhibition: 5

testSmiles: N=C(N)Nc1ccc(C(=O)Oc2ccc(CN)cc2)cc1
measurementUnits: %
inequalityOperator: =
inhibition: 36.5

testSmiles: N=C(N)Nc1ccc(NC(=O)c2ccc(NC(=N)N)cc2)cc1
measurementUnits: %
inequalityOperator: =
inhibition: 17.9

testSmiles: N=C(N)Nc1ccc(NC(=O)Oc2ccc(N)cc2)cc1
measurementUnits: %
inequalityOperator: =
inhibition: 61.9

testSmiles: N=C(N)Nc1ccc(OC(=O)c2ccc(N)cc2)cc1
measurementUnits: %
inequalityOperator: <
inhibition: 5

testSmiles: N=C(N)Nc1ccc(OC(=O)c2ccc(NC(=N)N)cc2)cc1
measurementUnits: %
inequalityOperator: =
inhibition: 29.8

* * *

inhibition overview
systemTested: Trypsin (Homo sapiens, UniProt P07477+P07478+P35030)
protocol: Inhibition of trypsin (unknown origin) at 50 uM using Boc-Val-Pro-Arg-AMC as substrate preincubated with enzyme for 15 mins followed by addition of substrate by fluorescence plate reader analysis relative to control
Type: protein assay
measurementName: inhibition (%)

compound: N=C(N)NCCCCC(=O)Oc1ccc(NC(=N)N)cc1
endpointValue: 65.9

compound: N=C(N)NCCCOC(=O)c1ccc(NC(=N)N)cc1
endpointValue: 78.9

compound: N=C(N)Nc1ccc(NC(=O)c2ccc(NC(=N)N)cc2)cc1
endpointValue: 87.2

compound: N=C(N)NCCCC(=O)Oc1ccc(NC(=N)N)cc1
endpointValue: 18.3

compound: N=C(N)Nc1ccc(C(=O)Nc2cccc(NC(=N)N)c2)cc1
endpointValue: 94.6

compound: N=C(N)NCCCCOC(=O)c1ccc(NC(=N)N)cc1
endpointValue: 84

compound: N=C(N)Nc1ccc(C(=O)Oc2ccc(CN)cc2)cc1
endpointValue: 101

compound: N=C(N)Nc1ccc(NC(=O)Oc2ccc(N)cc2)cc1
endpointValue: 101

compound: N=C(N)Nc1ccc(C(=O)Oc2cccc(NC(=N)N)c2)cc1
endpointValue: 100

compound: CN(C)C(=O)COC(=O)Cc1ccc(OC(=O)c2ccc(NC(=N)N)cc2)cc1 [CAMOSTAT]
endpointValue: 100

compound: N=C(N)Nc1ccc(OC(=O)c2ccc(NC(=N)N)cc2)cc1
endpointValue: 100

compound: N=C(N)Nc1ccc(OC(=O)c2ccc(N)cc2)cc1
endpointValue: 101

compound: N=C(N)Nc1ccc(C(=O)Oc2ccc(N)cc2)cc1
endpointValue: 102
